Taken from patent US5854407A.

# Test system: Gastric Motor of Dogs
# METHOD_SUMMARY: Effect (GMS activity) on gastric motor of dogs (strain gauge force transducer, gastric antrum, i.v.)
# Assay type: in vivo, dogs (Beagles)
# CONDITION_DETAILS: Canis lupus familiaris, iv; Table 3; dose inducing contraction area of 200%; dogs, i.v., as lactobionic acid solution; read-out: ED200
MEASURED_METRIC: ED200 (µg/kg)

1) CCN(C)[C@H]1C[C@@H](C)O[C@@H](O[C@@H]2[C@@H](C)[C@H](O[C@H]3C[C@@](C)(OC)[C@@H](O)[C@H](C)O3)[C@@H](C)C(=O)O[C@H](CCO)[C@@](C)(O)[C@H](O)[C@@H](C)C3=C(C)C[C@@]2(C)O3)[C@@H]1O [Compound (7)] | 3.2
